Assay: qHTS assay to test for compound auto fluorescence at 535 nm (green) in HepG2 cell free culture (AID 720686); further: on the % scale 0 is the no-effect control and ±100 the full control effect
Settings: Cell-free medium, green autofluorescence 485/535 nm; series mostly up to 91.3 µM
The source made the active and inactive calls. The call rests on the fitted dose curve; in most records, active means well fitted curve in the direction sought with a large enough effect in the repeat runs; inconclusive means weak or mixed curves; inactive means flat fitted curve, though single readings scatter.
observed.property: fluorescence, % of fluorescein control

Here is how some molecules turned out for fluorescence, % of fluorescein control.
>>> df
                                   molecule  meas_value
0  Oc1ccc(C2(c3ccc(O)cc3)CC3CC2C2CCCC32)cc1 (stereo not given)    inactive
1  COc1ccc(CN2CCN(C(c3ccc(F)cc3)c3ccc(F)cc3)CC2)c(OC)c1OC    inactive
2  COc1cc(/C=C/C(=O)O[C@H]2CC[C@]34C[C@]35CC[C@]3(C)[C@@H]([C@H](C)CCC=C(C)C)CC[C@@]3(C)[C@@H]5CC[C@H]4C2(C)C)ccc1O    inactive
3                            O=C1C=CC(=O)N1    inactive

Moving on to another molecule below.
Given `NNC(=O)c1cccc(C(=O)NN)c1` , state its recorded fluorescence, % of fluorescein control.
inactive

====

Experiment: qHTS assay to identify small molecule agonists of the retinoic acid receptor (RAR) signaling pathway (AID 1159553); on activation: on the % scale 0 is the no-effect control and ±100 the full control effect
Conditions: C3RL4 RARE luciferase reporter, agonist, 6 h; series mostly up to 73.3 µM
Results filed as inconclusive are left out. The source made the active and inactive calls. Calls come from the whole dose curve; as a rule, active = well fitted activation curve with a large enough effect in the repeat runs; inconclusive = weak or mixed curves, or effect the other way; inactive = no such curve, though single readings can be large or run the other way.
Use one of these outcomes when replying: Yes (active), No (inactive)

Would you please look over these solved cases?
                                   molecule  assigned_category
0  CCC1OCC(COc2ccc(Oc3ccccc3)cc2)O1 (stereo unspecified)                Yes
1  Cc1onc(-c2ccccc2Cl)c1C(=O)N[C@@H]1C(=O)N2[C@@H]1SC(C)(C)[C@@H]2C(=O)O                 No
2                        OCc1c[nH]c2ccccc12                 No
3             O=[N+]([O-])c1ccccc1Nc1ccccc1                 No
4  C[C@H]1[C@H]2CC[C@H]3[C@@H]4CC=C5C[C@@H](N(C)C)CC[C@]5(C)[C@H]4CC[C@]23CN1C                 No
5                           CCCCCOC(=O)CCCC                 No

Each molecule tested received a call. Report the one for `Cc1ccc(-n2nc(C(C)(C)C)cc2NC(=O)Nc2ccc(OCCN3CCOCC3)c3ccccc23)cc1` .
Yes

Each molecule tested received a call. Report the one for `C=C(C)C(=O)OCC[N+](C)(C)C` .
No

Each molecule tested received a call. Report the one for `Cn1cc(C(=O)[C@@H]2CCc3nc[nH]c3C2)c2ccccc21` .
No

Each molecule tested received a call. Report the one for `CC(=O)SC[C@@H](Cc1ccccc1)C(=O)NCC(=O)OCc1ccccc1` .
No

Each molecule tested received a call. Report the one for `CN(C)CCCOC1(Cc2ccccc2)CCCCCC1` .
No

====

Assay: qHTS assay to identify small molecule antagonists of the androgen receptor (AR) signaling pathway using the MDA cell line - cell viability counter screen (AID 743041; further: nearly all actives have a fitted effect of over 45% in size)
Details: MDA-kb2 viability, CellTiter-Fluor, 16 h, cells co-treated with R1881 androgen agonist; series mostly up to 70.3 µM
Inconclusive results are not listed. Active and inactive are the calls of the source. Calls follow the shape of the dose curve; as a rule, active = well fitted cell-killing curve with a large enough effect in the repeat runs; inconclusive = weak or mixed curves, or effect the other way; inactive = flat fitted curve, though single readings scatter.
Use one of these outcomes when replying: class 1 for active, class 0 for inactive

>>> print(df.to_string())
                                   compound  assigned_category
0  C=CC(=O)OCCn1c(=O)n(CCOC(=O)C=C)c(=O)n(CCOC(=O)C=C)c1=O            class 1

Each compound tested received a call. Report the one for `CCCCN1C(=O)[C@@H]([C@H](O)C2CCCCC2)NC(=O)C12CCN(Cc1ccc(Oc3ccc(C(=O)O)cc3)cc1)CC2` .
class 0

Each compound tested received a call. Report the one for CC1=NC(C)OC1C (stereo not given) .
class 0

Each compound tested received a call. Report the one for `CCCCCCCC/C=C/CCCCCCCC1=NCCN1CCO` .
class 0

Each compound tested received a call. Report the one for `[Cl][Bi]([Cl])([c]1ccccc1)([c]1ccccc1)[c]1ccccc1` .
class 1

====

Test: qHTS assay for small molecule agonists of the p53 signaling pathway - cell viability (AID 651633); further: nearly all actives have a fitted effect of over 30% in size
Details: p53RE-bla HCT-116 viability, ATP luminescence, 16 h; series mostly up to 83.3 µM
Text: National Center for Advancing Translational Sciences [NCATS] NIH Chemical Genomics Center [NCGC] U.S. Environmental Protection Agency [EPA] National Institutes of Environmental Health Sciences [NIEHS] National Toxicology Program [NTP] U.S. Food and Drug Administration [FDA] p53, a tumor suppressor protein, is activated following cellular insult, including DNA damage and other cellular stresses. […] The activation of the reporter gene under culture conditions can be detected by fluorescence intensity. […]
Results filed as inconclusive are left out. The source made the active and inactive calls. The call rests on the fitted dose curve.
Use one of these outcomes when replying: Yes (active), No (inactive)

Each compound tested received a call. Report the one for `CCCCCCC[N+](CC)(CC)CCCCc1ccc(Cl)cc1` .
No

Each compound tested received a call. Report the one for `Fc1ccc([C@@H]2CCNC[C@H]2COc2ccc3c(c2)OCO3)cc1` .
Yes

Each compound tested received a call. Report the one for `Cc1onc(-c2ccccc2Cl)c1C(=O)N[C@@H]1C(=O)N2[C@@H]1SC(C)(C)[C@@H]2C(=O)O` .
No

Each compound tested received a call. Report the one for `CCCCN1CCCC[C@H]1C(=O)Nc1c(C)cccc1C` .
No

Each compound tested received a call. Report the one for `CCCCCCCCCOC(=O)c1ccc(O)cc1` .
Yes

Each compound tested received a call. Report the one for `OC1(c2ccc(Cl)c(C(F)(F)F)c2)CCN(CCCC(c2ccc(F)cc2)c2ccc(F)cc2)CC1` .
Yes

Each compound tested received a call. Report the one for `CCCCCCCCCCCCc1ccc(O)cc1` .
Yes

====

Experiment: Caspase-3/7 induction in HepG2 cells by small molecules, qHTS cell viability counter screen (AID 1346981); further: nearly all actives have a fitted effect of over 30% in size
Settings: CellTiter-Fluor fluorescence, 17 h; series mostly up to 92.4 µM
Records with an inconclusive call do not appear. Active and inactive are the calls of the source. Calls follow the shape of the dose curve; as a rule, active = well fitted cell-killing curve with a large enough effect in the repeat runs; inconclusive = weak or mixed curves, or effect the other way; inactive = flat fitted curve, though single readings scatter.
Use one of these outcomes when replying: Y = active, N = inactive

Would you please look over these solved cases?
>>> print(df.to_string())
                           structure_string  assigned_category
0  CC[C@H](c1ccc(O)cc1)[C@@H](CC)c1ccc(O)cc1                  N
1  CCN1/C(=C/C=C/c2sc3ccccc3[n+]2CC)Sc2ccccc21                  Y
2            CCCCCOc1ccccc1/C(=C\SC)n1ccnc1                  N
3                           OCCCCCCCCCCCCBr                  N

Each compound tested received a call. Report the one for `Cc1onc(-c2c(Cl)cccc2Cl)c1C(=O)N[C@@H]1C(=O)N2[C@@H]1SC(C)(C)[C@@H]2C(=O)O` .
N

Each compound tested received a call. Report the one for `Clc1ccccc1C(c1ccccc1)(c1ccccc1)n1ccnc1` .
Y

====

Assay: qHTS assay to identify small molecule that activate the aryl hydrocarbon receptor (AhR) signaling pathway - cell viability counter screen (AID 743086); further: nearly all actives have a fitted effect of over 45% in size
Conditions: HepG2-AhR-luc viability, CellTiter-Fluor, 24 h; series mostly up to 70.3 µM
Inconclusive results are not listed. Active and inactive are the calls of the source. Calls follow the shape of the dose curve; as a rule, active = well fitted cell-killing curve with a large enough effect in the repeat runs; inconclusive = weak or mixed curves, or effect the other way; inactive = flat fitted curve, though single readings scatter.
Use one of these outcomes when replying: true (1) for active, false (0) for inactive

>>> df
                                   compound  assigned_category
0  C[C@@H](NCCCc1cccc(C(F)(F)F)c1)c1cccc2ccccc12           true (1)
1                   Oc1c(Cl)cc(Cl)c2cccnc12          false (0)
2             CCOc1ccc2nc3cc(N)ccc3c(N)c2c1          false (0)
3  CCN(CCC#N)c1ccc(N=Nc2c(Cl)cc([N+](=O)[O-])cc2Cl)cc1           true (1)
4  Cc1onc(-c2c(Cl)cccc2Cl)c1C(=O)N[C@@H]1C(=O)N2[C@@H]1SC(C)(C)[C@@H]2C(=O)O          false (0)
5  O=C(OCC1CO1)C1CCCCC1C(=O)OCC1CO1 (centres undefined)          false (0)

Each compound tested received a call. Report the one for `CCCCCOC(=O)CCCC` .
false (0)

Each compound tested received a call. Report the one for `Cc1ccc2oc(CN(Cc3ccccc3)C(=O)Nc3c(F)cc(F)cc3F)c(-c3ccc(Cl)cc3)c2c1` .
false (0)

Each compound tested received a call. Report the one for `O=C1CCCc2c1cc1ccc3cccc4ccc2c1c34` .
false (0)

Each compound tested received a call. Report the one for `NNc1nc(-c2ccccc2)cs1` .
false (0)

Each compound tested received a call. Report the one for CCCCCCCCS(=O)C(C)Cc1ccc2c(c1)OCO2 (centres undefined) .
false (0)

Each compound tested received a call. Report the one for `CCCCCCCCCCCC(=O)NCCCN(C)C` .
true (1)

Each compound tested received a call. Report the one for `Cc1cc(CCN2CCN(c3nsc4ccccc34)CC2)cc2c1NC(=O)CC2(C)C` .
true (1)

Each compound tested received a call. Report the one for `CCc1cc(Cc2cc(CC)cc(C(C)(C)C)c2O)c(O)c(C(C)(C)C)c1` .
false (0)

Each compound tested received a call. Report the one for CCCC(C)c1ccccc1O (centres undefined) .
false (0)

Each compound tested received a call. Report the one for CC(=O)OCC(C)OC(C)=O (centres undefined) .
false (0)

Each compound tested received a call. Report the one for `CCCCCCCCCCCC[N+](C)(C)CCCCCCCCCCCC` .
true (1)

Each compound tested received a call. Report the one for `CCCCCCCCCCC=O` .
false (0)

Each compound tested received a call. Report the one for `C[C@]12CCC(=O)C=C1CC[C@@H]1[C@@H]2[C@@H](O)C[C@@]2(C)[C@H]1CC[C@]2(O)C(=O)COC(=O)CCC(=O)O` .
false (0)

Each compound tested received a call. Report the one for `S=c1[nH]c2ccccc2s1` .
false (0)

Each compound tested received a call. Report the one for `O=C(NO)C1(NS(=O)(=O)c2ccc(Oc3ccc(F)cc3)cc2)CCOCC1` .
false (0)

Each compound tested received a call. Report the one for `Cc1c(C)c2c(c(C)c1OC(=O)CCC(=O)O)CC[C@@](C)(CCC[C@H](C)CCC[C@H](C)CCCC(C)C)O2` .
false (0)

Each compound tested received a call. Report the one for `Clc1ccc2cc3ccccc3cc2c1` .
false (0)

Each compound tested received a call. Report the one for `Cc1ccc(-n2nc(C(C)(C)C)cc2NC(=O)Nc2ccc(OCCN3CCOCC3)c3ccccc23)cc1` .
false (0)
